- EXPERIMENT DESCRIPTION: yeast display, Sf9 membrane polyspecificity reagent, FACS + sequencing; frameworks hold sequencing errors

{"SEQUENCE INPUT": "QVQLVESGGGLVQAGGSLRLSCAASGSIFWPNPMGGYRQAPGKERELVAGSTFSGGSTYADSVKGRFTISRDNAKNTVYLQMNSLKPEDTAVYYCAVVYYRDPRMDFWRQGTQVTVSS", "polyreactivity (PSR sort gate)": "high polyreactivity"}
{"SEQUENCE INPUT": "QVQLVESGGGLVHAGGSLRLSCAASGRIFQVYAMGWYRQAPGKERELVAAISARGGSTYYADSVKGRFTISRDNAKNTVYLQMNSLKPEDTAVYYCAARSAYGTQRLYYWGQGTQVTVSS", "polyreactivity (PSR sort gate)": "high polyreactivity"}

Values were extracted from the nanobody polyreactivity screen of Harvey et al. (2022).
